tested on: HCV replicon (HCV 1b-377-neo replicon cells); assay: HCV replicon cell line FRET assay; type: cell-based; conditions: Hepatitis C virus; HCV replicon cell line, FRET assay; read-out: Replicon Inhibition Range EC50
pEC50: −log10 of the molar value.
measurement name: pEC50

compound: O=C(Nc1cccc(C2S/C(=N\c3cccc(F)c3)N(Cc3ccco3)C2=O)c1)[C@@H]1CCCN1C(=O)OCc1ccccc1 (stereo partly drawn)
pEC50: 5.30 to 6.00
//
compound: C[C@H](NC(=O)C(c1ccccc1)c1ccccc1)C(=O)Nc1ccc(C2S/C(=N\c3ccc(N4CCOCC4)cc3)N(Cc3ccccn3)C2=O)cc1 (stereo partly drawn)
pEC50: > 7.00
//
compound: C[C@H](NC(=O)OCc1ccccc1)C(=O)Nc1ccc(C2S/C(=N\c3cccc(F)c3)N(CC3CCCO3)C2=O)cc1 (stereo partly drawn)
pEC50: 6.00 to 7.00
//
compound: COc1ccc(C(F)(F)F)cc1/N=C1\SC(c2ccc(NC(=O)[C@H](C)NC(=O)OCc3ccccc3)cc2)C(=O)N1Cc1ccco1 (stereo partly drawn)
pEC50: 6.00 to 7.00
//
compound: CCOC(=O)/N=C1\SC(c2ccc(NC(=O)[C@@H]3CCCN3C(=O)OCc3ccccc3)cc2)C(=O)N1Cc1ccccn1 (stereo partly drawn)
pEC50: > 7.00

## Task Param item = C[C@H](NC(=O)OCc1ccccc1)C(=O)Nc1ccc(C2S/C(=N\c3ccc(C(F)(F)F)cc3)N(Cc3ccco3)C2=O)cc1 (stereo partly drawn) ; retrieve measured pEC50.
## Result 5.30 to 6.00

----------
tested on: HCV replicon (HCV 1b-377-neo replicon cells); assay: HCV replicon cell line FRET assay; format: cell-based; conditions: Hepatitis C virus; HCV replicon cell line, FRET assay; read-out: Replicon Inhibition Range EC50
pEC50: −log10 of the molar value.
Entries and their measured pEC50 follow.

The following compounds have reported results that may help.
compound: COc1ccc(C(F)(F)F)cc1/N=C1\SC(c2ccc(NC(=O)[C@@H]3CCCN3C(=O)OCc3ccccc3)cc2)C(=O)N1Cc1ccco1 (stereo partly shown)
pEC50: 6.00 to 7.00

compound: C[C@H](NC(=O)OCc1ccccc1)C(=O)Nc1ccc(C2S/C(=N\c3cccc(F)c3)N(Cc3cccnc3)C2=O)cc1 (stereo partly shown)
pEC50: > 7.00

compound: O=C(Nc1ccc(C2S/C(=N\c3cccc(F)c3)N(Cc3cccnc3)C2=O)cc1)[C@@H]1CCCN1C(=O)OCc1ccccc1 (stereo partly shown)
pEC50: > 7.00

Consider the record given below.
## Task Param item = C[C@H](NC(=O)NCc1ccccc1)C(=O)Nc1ccc(C2S/C(=N\c3cccc(F)c3)N(Cc3ccco3)C2=O)cc1 (stereo partly shown) ; retrieve measured pEC50.
## Result 6.00 to 7.00

----------
Entries and their measured CC50 at 72 h follow.
assay: Alamar blue cytotoxicity (CC50), wild-type replicon cells; assay type: cell-based; conditions: human, Huh-7 cells carrying the wild-type HCV 377-neo replicon; Wild-type replicon cell line

compound: C[C@H](NC(=O)Cc1ccccc1)C(=O)Nc1ccc(C2S/C(=N\c3cccc(F)c3)N(Cc3ccco3)C2=O)cc1 (some centres unmarked)
CC50 at 72 h: > 5 µM

Consider the record given below.
## Task Param item = C[C@H](NC(=O)OCc1ccccc1)C(=O)Nc1ccc(C2S/C(=N\c3cccc(F)c3)N(Cc3ccco3)C2=O)cc1 (some centres unmarked) ; retrieve measured CC50 at 72 h.
## Result > 5 µM
